Quick list: IC50 per entry.
- Test system: 885512-296-R-J2-PDC complex spheroid viability
- measurement-description: Anticancer human tumor 885512-296-R-J2-PDC patient-derived breast carcinoma cell line growth inhibition [GQUAD]
- condition-info: curve of first compound; second compound 10 µM
- Description: DNA G-quadruplex Stabilizer Agents in Combinations in Complex Spheroids A high-throughput screen of multi-cell type tumor spheroids was designed to identify active combinations of DNA G-quadruplex stabilizer agents and targeted small molecules. […] Compounds. […] If the clinical Cmax for an agent had not been determined, the highest concentration tested was 10 microM. […]

[Q] Look at this compound and give its reported IC50. CC(C)n1c(=O)n(C)c2cnc3cc(F)c(-c4ccc(OCCCN5CCCCC5)nc4)cc3c21 + Cc1[nH]c2ccc(F)cc2c1-c1nc2c3cccnc3c3ncccc3c2[nH]1
[A] < 31.6 nM

[Q] Look at this compound and give its reported IC50. COc1ccc([C@@H](O)c2cc(-c3ncnc4cc(N5CCOCC5)ccc34)c(F)cc2Cl)nn1 + Cc1[nH]c2ccc(F)cc2c1-c1nc2c3cccnc3c3ncccc3c2[nH]1
[A] < 31.6 nM

[Q] Look at this compound and give its reported IC50. CC1COCCN1c1cc(-c2ccnn2C)c2ccnc(-c3ccn[nH]3)c2n1 (stereo unspecified) + CN(C)c1ccc(Nc2c3ccc(NC(=O)CCN4CCCC4)cc3nc3cc(NC(=O)CCN4CCCC4)ccc23)cc1
[A] < 31.6 nM

[Q] Look at this compound and give its reported IC50. COc1cccc2c1C(=O)c1c(O)c3c(c(O)c1C2=O)CC(O)(C(=O)CO)CC3OC1CC(N)C(O)C(C)O1 (stereo unspecified) + Cc1cnc(CNC(=O)c2c(=O)c3ccc(N4CCCN(C)CC4)nc3n3c2sc2ccccc23)cn1
[A] < 31.6 nM

[Q] Look at this compound and give its reported IC50. COc1cccc2c1C(=O)c1c(O)c3c(c(O)c1C2=O)CC(O)(C(=O)CO)CC3OC1CC(N)C(O)C(C)O1 (stereo unspecified) + CN(C)c1ccc(Nc2c3ccc(NC(=O)CCN4CCCC4)cc3nc3cc(NC(=O)CCN4CCCC4)ccc23)cc1
[A] < 31.6 nM

[Q] Look at this compound and give its reported IC50. O=C(c1cc(Cc2n[nH]c(=O)c3ccccc23)ccc1F)N1CCN(C(=O)C2CC2)CC1 + CN(C)c1ccc(Nc2c3ccc(NC(=O)CCN4CCCC4)cc3nc3cc(NC(=O)CCN4CCCC4)ccc23)cc1
[A] < 31.6 nM

[Q] Look at this compound and give its reported IC50. Cc1cccc(N(C)C(=O)C2C(O)CCN2c2nc(C)cc(C(F)(F)F)c2C#N)c1 (stereo unspecified) + CN(C)c1ccc(Nc2c3ccc(NC(=O)CCN4CCCC4)cc3nc3cc(NC(=O)CCN4CCCC4)ccc23)cc1
[A] < 31.6 nM

[Q] Look at this compound and give its reported IC50. O=c1[nH]cc(F)c(=O)[nH]1 + CN(C)c1ccc(Nc2c3ccc(NC(=O)CCN4CCCC4)cc3nc3cc(NC(=O)CCN4CCCC4)ccc23)cc1
[A] < 31.6 nM

[Q] Look at this compound and give its reported IC50. CCCS(=O)(=O)Nc1ccc(F)c(C(=O)c2c[nH]c3ncc(-c4ccc(Cl)cc4)cc23)c1F + Cc1cnc(CNC(=O)c2c(=O)c3ccc(N4CCCN(C)CC4)nc3n3c2sc2ccccc23)cn1
[A] < 31.6 nM

[Q] Look at this compound and give its reported IC50. COc1ccc([C@@H](O)c2cc(-c3ncnc4cc(N5CCOCC5)ccc34)c(F)cc2Cl)nn1 + CN(C)c1ccc(Nc2c3ccc(NC(=O)CCN4CCCC4)cc3nc3cc(NC(=O)CCN4CCCC4)ccc23)cc1
[A] < 31.6 nM

[Q] Look at this compound and give its reported IC50. Cc1[nH]c2ccccc2c1CCNCc1ccc(/C=C/C(=O)NO)cc1 + CN(C)c1ccc(Nc2c3ccc(NC(=O)CCN4CCCC4)cc3nc3cc(NC(=O)CCN4CCCC4)ccc23)cc1
[A] < 0.999 nM

* * *

Quick list: viability, T/C per entry.
- System: 885512-296-R-J2-PDC complex spheroid viability
- measurement-description: Anticancer human tumor 885512-296-R-J2-PDC cell line growth inhibition [GQUAD];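 further: spheroids exposed to the compounds for one week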;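 on viability, T/C: percent of tumor spheroid viability relative to DMSO vehicle control wells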
- condition-info: second compound 0.1 µM; first compound 0.0999 µM; stronger effect = lower value
- Text: DNA G-quadruplex Stabilizer Agents in Combinations in Complex Spheroids A high-throughput screen of multi-cell type tumor spheroids was designed to identify active combinations of DNA G-quadruplex stabilizer agents and targeted small molecules. […] Compounds. […] If the clinical Cmax for an agent had not been determined, the highest concentration tested was 10 microM. […]
Could you give me the number in %? Just the number is fine.

# example entries with known answers
CCc1c2c(nc3ccc(O)cc13)-c1cc3c(c(=O)n1C2)COC(=O)[C@]3(O)CC + CN(C)c1ccc(Nc2c3ccc(NC(=O)CCN4CCCC4)cc3nc3cc(NC(=O)CCN4CCCC4)ccc23)cc1 ... 1.42
Cn1ncnc1[C@H]1c2n[nH]c(=O)c3cc(F)cc(c23)N[C@@H]1c1ccc(F)cc1 + CN(C)c1ccc(Nc2c3ccc(NC(=O)CCN4CCCC4)cc3nc3cc(NC(=O)CCN4CCCC4)ccc23)cc1 ... 71.6
Cc1[nH]c2ccccc2c1CCNCc1ccc(/C=C/C(=O)NO)cc1 + CN(C)c1ccc(Nc2c3ccc(NC(=O)CCN4CCCC4)cc3nc3cc(NC(=O)CCN4CCCC4)ccc23)cc1 ... 25.3
CC[C@@]1(O)C(=O)OCc2c1cc1n(c2=O)Cc2cc3c(CN(C)C)c(O)ccc3nc2-1 + CN(C)c1ccc(Nc2c3ccc(NC(=O)CCN4CCCC4)cc3nc3cc(NC(=O)CCN4CCCC4)ccc23)cc1 ... 6.9

[Q] Look at this compound and give its reported viability, T/C. Cn1ncnc1[C@H]1c2n[nH]c(=O)c3cc(F)cc(c23)N[C@@H]1c1ccc(F)cc1 + Cc1cnc(CNC(=O)c2c(=O)c3ccc(N4CCCN(C)CC4)nc3n3c2sc2ccccc23)cn1
[A] 27.3

[Q] Look at this compound and give its reported viability, T/C. CC[C@@]1(O)C(=O)OCc2c1cc1n(c2=O)Cc2cc3c(CN(C)C)c(O)ccc3nc2-1 + Cc1cnc(CNC(=O)c2c(=O)c3ccc(N4CCCN(C)CC4)nc3n3c2sc2ccccc23)cn1
[A] 13.4

[Q] Look at this compound and give its reported viability, T/C. Cn1ncnc1[C@H]1c2n[nH]c(=O)c3cc(F)cc(c23)N[C@@H]1c1ccc(F)cc1 + Cc1[nH]c2ccc(F)cc2c1-c1nc2c3cccnc3c3ncccc3c2[nH]1
[A] 76.2

* * *

Quick list: viability, T/C per entry.
- Tested on: 885512-296-R-J2-PDC complex spheroid viability
- measurement-description: Anticancer human tumor 885512-296-R-J2-PDC cell line growth inhibition [GQUAD];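 further: spheroids exposed to the compounds for one week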;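 on viability, T/C: percent of tumor spheroid viability relative to DMSO vehicle control wells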
- condition-info: second compound 1 µM; first compound 0.0316 µM; stronger effect = lower value
Could you give me the number in %? Just the number is fine.

CC(C)n1c(=O)n(C)c2cnc3cc(F)c(-c4ccc(OCCCN5CCCCC5)nc4)cc3c21 + Cc1cnc(CNC(=O)c2c(=O)c3ccc(N4CCCN(C)CC4)nc3n3c2sc2ccccc23)cn1 ... 18.1
COc1ncnc(C2CC2)c1-c1ncc2cnn(Cc3ccc(-c4nc(C(F)(F)F)cn4C(C)C)cc3)c2n1 + Cc1cnc(CNC(=O)c2c(=O)c3ccc(N4CCCN(C)CC4)nc3n3c2sc2ccccc23)cn1 ... 27.8
C#Cc1c(F)ccc2cc(O)cc(-c3ncc4c(N5CC6CCC(C5)N6)nc(OCC56CCCN5CC(F)C6)nc4c3F)c12 (stereo not given) + Cc1[nH]c2ccc(F)cc2c1-c1nc2c3cccnc3c3ncccc3c2[nH]1 ... 52.9
CC(=O)O[C@H]1C(=O)[C@@]2(C)[C@H]([C@H](OC(=O)c3ccccc3)[C@]3(O)C[C@H](OC(=O)[C@H](O)[C@@H](NC(=O)c4ccccc4)c4ccccc4)C(C)=C1C3(C)C)[C@]1(OC(C)=O)CO[C@@H]1C[C@@H]2O + Cc1cnc(CNC(=O)c2c(=O)c3ccc(N4CCCN(C)CC4)nc3n3c2sc2ccccc23)cn1 ... 7.81

[Q] Look at this compound and give its reported viability, T/C. CC[C@@]1(O)C(=O)OCc2c1cc1n(c2=O)Cc2cc3c(CN(C)C)c(O)ccc3nc2-1 + Cc1cnc(CNC(=O)c2c(=O)c3ccc(N4CCCN(C)CC4)nc3n3c2sc2ccccc23)cn1
[A] 20.1

[Q] Look at this compound and give its reported viability, T/C. Cc1[nH]c2ccccc2c1CCNCc1ccc(/C=C/C(=O)NO)cc1 + Cc1[nH]c2ccc(F)cc2c1-c1nc2c3cccnc3c3ncccc3c2[nH]1
[A] 65.9

[Q] Look at this compound and give its reported viability, T/C. Nc1ccn(C2OC(CO)C(O)C2(F)F)c(=O)n1 (stereo not given) + Cc1cnc(CNC(=O)c2c(=O)c3ccc(N4CCCN(C)CC4)nc3n3c2sc2ccccc23)cn1
[A] 9.41

[Q] Look at this compound and give its reported viability, T/C. CC[C@@]1(O)C(=O)OCc2c1cc1n(c2=O)Cc2cc3c(CN(C)C)c(O)ccc3nc2-1 + Cc1[nH]c2ccc(F)cc2c1-c1nc2c3cccnc3c3ncccc3c2[nH]1
[A] 35.7

[Q] Look at this compound and give its reported viability, T/C. CC1COCCN1c1cc(C2(S(C)(=N)=O)CC2)nc(-c2ccnc3[nH]ccc23)n1 (stereo not given) + Cc1[nH]c2ccc(F)cc2c1-c1nc2c3cccnc3c3ncccc3c2[nH]1
[A] 80.4

[Q] Look at this compound and give its reported viability, T/C. COc1cc(C2c3cc4c(cc3C(OC3OC5COC(C)OC5C(O)C3O)C3COC(=O)C23)OCO4)cc(OC)c1O (stereo not given) + CN(C)c1ccc(Nc2c3ccc(NC(=O)CCN4CCCC4)cc3nc3cc(NC(=O)CCN4CCCC4)ccc23)cc1
[A] 88.4
